# SYSTEM NAME: Ubiquitin carboxyl-terminal hydrolase 28 (Homo sapiens) (UniProt Q96RU2)
# Sequence (Q96RU2 whole entry, looked up): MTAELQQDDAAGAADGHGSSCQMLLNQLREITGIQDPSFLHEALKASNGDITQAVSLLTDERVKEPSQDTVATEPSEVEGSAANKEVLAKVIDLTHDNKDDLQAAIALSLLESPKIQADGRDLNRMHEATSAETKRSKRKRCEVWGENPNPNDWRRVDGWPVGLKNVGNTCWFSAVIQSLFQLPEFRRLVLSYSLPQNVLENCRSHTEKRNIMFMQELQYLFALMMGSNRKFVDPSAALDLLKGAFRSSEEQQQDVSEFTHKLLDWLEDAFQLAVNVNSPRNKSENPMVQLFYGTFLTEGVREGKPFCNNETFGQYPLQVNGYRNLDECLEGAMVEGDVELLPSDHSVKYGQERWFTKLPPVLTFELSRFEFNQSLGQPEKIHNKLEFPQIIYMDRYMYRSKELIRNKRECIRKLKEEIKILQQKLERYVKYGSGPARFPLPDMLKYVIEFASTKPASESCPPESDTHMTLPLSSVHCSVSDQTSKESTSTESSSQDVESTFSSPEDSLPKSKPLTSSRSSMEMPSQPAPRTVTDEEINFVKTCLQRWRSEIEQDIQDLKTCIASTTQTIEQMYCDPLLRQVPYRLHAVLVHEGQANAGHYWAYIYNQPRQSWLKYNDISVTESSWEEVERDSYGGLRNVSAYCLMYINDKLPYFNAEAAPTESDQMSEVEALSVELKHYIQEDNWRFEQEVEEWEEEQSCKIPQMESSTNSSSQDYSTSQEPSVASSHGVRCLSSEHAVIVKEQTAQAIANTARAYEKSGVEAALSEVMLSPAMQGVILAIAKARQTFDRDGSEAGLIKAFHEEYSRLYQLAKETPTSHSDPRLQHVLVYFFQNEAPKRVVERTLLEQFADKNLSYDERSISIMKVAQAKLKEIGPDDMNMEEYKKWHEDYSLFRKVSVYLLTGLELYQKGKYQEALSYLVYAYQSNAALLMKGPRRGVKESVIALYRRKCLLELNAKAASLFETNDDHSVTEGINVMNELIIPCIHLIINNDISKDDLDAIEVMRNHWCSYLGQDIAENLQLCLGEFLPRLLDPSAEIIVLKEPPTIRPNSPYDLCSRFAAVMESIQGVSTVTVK
# EXPERIMENTAL DETAILS: Concentration-response biochemical assay confirming initial hits as inhibitors of ubiquitin-specific protease 28 (AID 1645866)
# CONDITIONS USED: purified USP28, ubiquitin-rhodamine fluorescence, 30 min
The source made the active and inactive calls.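 The calls were made as follows: active = in confirmatory dose-response testing, peak deubiquitinase inhibition of 30% or more; inactive = the rest.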
Response enum: active, inactive

Ask | Per the records of this test, what outcome belongs to COc1cc2c(c(OCC(=O)Nc3ccc4c(c3)OCCO4)c1)C(=O)O[C@@H](C)CCCC(=O)CCCCC2 ?
Reply | active

Ask | Per the records of this test, what outcome belongs to CCN1CCCC1CN(Cc1cc2cc(OC)ccc2[nH]c1=O)C(=O)NCc1ccccc1 (stereo not drawn) ?
Reply | inactive

Ask | Per the records of this test, what outcome belongs to COc1cnc(-c2ccccn2)nc1Sc1ccccc1Cl ?
Reply | active

Ask | Per the records of this test, what outcome belongs to COCCNC(=O)c1ccc(-c2ccc(N3CCCCC3)nc2)cc1 ?
Reply | active

Ask | Per the records of this test, what outcome belongs to O=C(Cn1c(CSc2ccccc2)nc2ccccc21)Nc1ccccc1F ?
Reply | active

----------
# SYSTEM NAME: Ubiquitin carboxyl-terminal hydrolase 28 (Homo sapiens)
# EXPERIMENTAL DETAILS: Concentration-response biochemical assay confirming initial hits as inhibitors of ubiquitin-specific protease 28 (AID 1645866)
# CONDITIONS USED: purified USP28, ubiquitin-rhodamine fluorescence, 30 min
Calls of active or inactive are those of the source.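 How the source made its calls: active means in confirmatory dose-response testing, peak deubiquitinase inhibition of 30% or more; inactive means the rest.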
Response enum: active, inactive

Ask | Per the records of this test, what outcome belongs to Cc1ccc(-n2c(-c3ccccc3)cn3c4c(=O)[nH]c(=O)n(C)c4nc23)cc1Cl ?
Reply | active

Ask | Per the records of this test, what outcome belongs to Cc1ccc2oc(=O)c(S(=O)(=O)N3CCCCC3)cc2c1 ?
Reply | active

Ask | Per the records of this test, what outcome belongs to Cc1ccc(-n2c(-c3ccccc3)cn3c4c(=O)[nH]c(=O)n(C)c4nc23)cc1C ?
Reply | active

Ask | Per the records of this test, what outcome belongs to CC(=O)c1ccc(NC(=O)c2nc3ccccc3nc2N2CCOCC2)cc1 ?
Reply | inactive

Continue with the next molecule.
Ask | Per the records of this test, what outcome belongs to Cn1c(-c2nnc(SCC(=O)NCCc3ccccc3)o2)cc2ccccc21 ?
Reply | active

----------
# SYSTEM NAME: Ubiquitin carboxyl-terminal hydrolase 28 (Homo sapiens) (UniProt Q96RU2)
# EXPERIMENTAL DETAILS: Concentration-response biochemical assay confirming initial hits as inhibitors of ubiquitin-specific protease 28 (AID 1645866)
# CONDITIONS USED: purified USP28, ubiquitin-rhodamine fluorescence, 30 min
Activity calls are given as the source filed them.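 Rule for the calls: active = in confirmatory dose-response testing, peak deubiquitinase inhibition of 30% or more; inactive = the rest.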
Response enum: active, inactive

Answered cases to consult:
Ask | Per the records of this test, what outcome belongs to C[C@]12C(=O)N(c3ccc(C(=O)NCc4ccc(F)cc4)cc3)C(=O)N1CCc1c2[nH]c2ccccc12 ?
Reply | active

Ask | Per the records of this test, what outcome belongs to C=C1CCC2[C@](C)(CCC[C@]2(C)C(=O)OC)[C@H]1CCc1ccoc1CNC(C)C (some centres undefined) ?
Reply | inactive

Ask | Per the records of this test, what outcome belongs to CCCCNC(=O)C1Sc2nnc(-c3ccccc3)n2NC1c1ccccc1 (centres undefined) ?
Reply | active

Continue with the next molecule.
Ask | Per the records of this test, what outcome belongs to O=C(CCC1CCCCC1)Nc1ccccc1C(=O)N1CCOCC1 ?
Reply | inactive

----------
# SYSTEM NAME: UniProt:Q96RU2
# EXPERIMENTAL DETAILS: Concentration-response biochemical assay confirming initial hits as inhibitors of ubiquitin-specific protease 28 (AID 1645866);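 active means in confirmatory dose-response testing, peak deubiquitinase inhibition of 30% or more; inactive means the rest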
# CONDITIONS USED: purified USP28, ubiquitin-rhodamine fluorescence, 30 min
Response enum: true (active), false (inactive)

Ask | Per the records of this test, what outcome belongs to Cc1ccc(/C=C/C(=O)Nc2ccc3c(c2)OCCO3)cc1 ?
Reply | true

Ask | Per the records of this test, what outcome belongs to Cc1ccc(-n2nnc(C(=O)NC3CCCCC3)c2N)cc1 ?
Reply | true

Further cases:
Ask | Per the records of this test, what outcome belongs to Cc1cccc(NC(=O)Nc2nnc(CC(=O)NCc3ccccc3)s2)c1 ?
Reply | true

Ask | Per the records of this test, what outcome belongs to COc1ccccc1CNC(=O)CCCCn1c(=O)c2ccccc2n(Cc2ccccc2C#N)c1=O ?
Reply | true

Ask | Per the records of this test, what outcome belongs to COc1ccc(NC(=O)c2[nH]nc3c2COc2ccccc2-3)c(OC)c1 ?
Reply | true

----------
# SYSTEM NAME: Ubiquitin carboxyl-terminal hydrolase 28 (Homo sapiens) (UniProt Q96RU2)
# EXPERIMENTAL DETAILS: Concentration-response biochemical assay confirming initial hits as inhibitors of ubiquitin-specific protease 28 (AID 1645866)
# CONDITIONS USED: purified USP28, ubiquitin-rhodamine fluorescence, 30 min
The source made the active and inactive calls.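 Rule for the calls: active = in confirmatory dose-response testing, peak deubiquitinase inhibition of 30% or more; inactive = the rest.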
Response enum: active, inactive

Answered cases to consult:
Ask | Per the records of this test, what outcome belongs to Cc1sc(NC(=O)CNc2ccccc2)nc1-c1ccc2c(c1)CCN2C(=O)C(C)C ?
Reply | inactive

Ask | Per the records of this test, what outcome belongs to Cc1ccc2[nH]c(=O)c(CN(Cc3cccnc3)C(=O)c3cccc(Cl)c3)cc2c1 ?
Reply | inactive

Ask | Per the records of this test, what outcome belongs to CC1=C(C(=O)Nc2ccccc2C)C(c2ccc(OCc3ccccc3F)cc2)n2ncnc2N1 (stereo not drawn) ?
Reply | active

Ask | Per the records of this test, what outcome belongs to COc1cc(=O)c(C(=O)Nc2ccc(C#N)cc2)nn1-c1cccc(F)c1 ?
Reply | active

Ask | Per the records of this test, what outcome belongs to CC1CCN(c2nnc(-c3nc(C4CC4)no3)c3ccccc23)CC1 ?
Reply | inactive

Ask | Per the records of this test, what outcome belongs to COc1ccc(CC(=O)Nc2nc(-c3ccco3)c(-c3ccco3)s2)cc1 ?
Reply | inactive

Further cases:
Ask | Per the records of this test, what outcome belongs to Cc1ccc(NC(=O)c2nnn(-c3ccccc3)n2)cc1F ?
Reply | active

Ask | Per the records of this test, what outcome belongs to N#Cc1ccccc1COC(=O)c1ccc2ccccc2n1 ?
Reply | active

Ask | Per the records of this test, what outcome belongs to CCN(c1ccc(NC(=O)CSc2nnc(-c3ccccc3)n2-c2ccc(OC)c(OC)c2)cc1)C(C)C ?
Reply | active

Ask | Per the records of this test, what outcome belongs to COc1ccc(CCNC(=O)CCCn2c(=O)c3ccccc3n(CC(=O)OCc3ccccc3)c2=O)cc1OC ?
Reply | active

Ask | Per the records of this test, what outcome belongs to O=C(CNC(=O)c1cccc(F)c1)Nc1nc2ccccc2[nH]1 ?
Reply | active

Ask | Per the records of this test, what outcome belongs to Cc1cccc(CNC(=O)c2ccc(-c3nnc(-c4cccc(C)c4)o3)cc2)c1 ?
Reply | active

Ask | Per the records of this test, what outcome belongs to COc1ccccc1-c1nc2c3c(C)c(C)n(Cc4cccnc4)c3ncn2n1 ?
Reply | active

----------
# SYSTEM NAME: UniProt Q96RU2
# EXPERIMENTAL DETAILS: Concentration-response biochemical assay confirming initial hits as inhibitors of ubiquitin-specific protease 28 (AID 1645866)
# CONDITIONS USED: purified USP28, ubiquitin-rhodamine fluorescence, 30 min
Active and inactive are the calls of the source.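 How the source made its calls: active means in confirmatory dose-response testing, peak deubiquitinase inhibition of 30% or more; inactive means the rest.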
Response enum: 1.0 for active, 0.0 for inactive

Ask | Per the records of this test, what outcome belongs to CC(=O)Nc1ccc(S(=O)(=O)Nc2ccc(Nc3ccc(-n4cccn4)nn3)cc2)cc1 ?
Reply | 1.0

Ask | Per the records of this test, what outcome belongs to Cc1ccc(NC(=O)C2CCN(c3cncnc3N3CCCC3)CC2)cc1 ?
Reply | 1.0

Ask | Per the records of this test, what outcome belongs to COc1cccc(-c2cc(C(=O)N3CCN(c4ccc(N5CCOCC5)nn4)CC3)[nH]n2)c1 ?
Reply | 1.0

Ask | Per the records of this test, what outcome belongs to COc1ccc(CCNC(=O)c2noc3c2CCc2sccc2-3)cc1OC ?
Reply | 1.0

Ask | Per the records of this test, what outcome belongs to Cc1ccc(Cl)cc1NC(=O)COC(=O)c1ccc2ccccc2n1 ?
Reply | 0.0

Ask | Per the records of this test, what outcome belongs to O=C(NCc1ccc2c(c1)OCO2)c1cc2c(s1)-c1ccccc1OC2 ?
Reply | 1.0

Ask | Per the records of this test, what outcome belongs to O=S(=O)(c1ccccc1Cl)N1CCN(c2ccc3nnc(-c4ccco4)n3n2)CC1 ?
Reply | 0.0

Ask | Per the records of this test, what outcome belongs to Fc1cccc(Cn2cc(-c3noc(-c4cccnc4)n3)nn2)c1 ?
Reply | 1.0

Ask | Per the records of this test, what outcome belongs to CCC(=O)Nc1ccccc1-c1nc2ccccc2n(CC(=O)Nc2cc(OC)ccc2OC)c1=O ?
Reply | 1.0

Ask | Per the records of this test, what outcome belongs to Cc1cccc(NC(=O)CSc2nnc(-c3n[nH]c4c3CCC4)n2N)c1 ?
Reply | 1.0

Further cases:
Ask | Per the records of this test, what outcome belongs to CC(=O)c1sc(NC(=O)/C=C/c2ccccc2)nc1-c1ccccc1 ?
Reply | 1.0

Ask | Per the records of this test, what outcome belongs to COc1ccc(-c2nc(Cn3nnc(C(=O)Nc4ccc(C)c(C)c4)c3N)c(C)o2)cc1 ?
Reply | 1.0

Reference source for all entries: PubChem BioAssay AID1645866
